Numbers sourced from ChEMBL document CHEMBL5154738.

- TEST METHOD NOTES: Cytotoxicity against C57BL/6J mouse primary hepatocytes assessed as cell viability at 200 uM incubated for 24 hrs by MTT assay relative to control
- Assay type: toxicity, cell-based, Hepatocyte
- SETTINGS: read-out: Activity
MEASURED QUANTITY: viability at 24 h, 200 µM (%)
One number for each entry, in %.

Below: 3 compounds and their reported viability at 24 h, 200 µM.
> print(dat)
                               input.smiles          measured.quantity  numeric.value
1  COC(=O)[C@@]12CCCC3([C@H](OCCCCO)OC1)[C@H]2CC[C@H]1[C@@H](C)c2ccoc2C[C@@H]13  viability at 24 h, 200 µM           17.6
2  COC(=O)[C@]12CCCC3([C@H]1CC[C@H]1[C@@H](C)c4ccoc4C[C@@H]13)[C@H](SCCO)OC2  viability at 24 h, 200 µM            9.2
3  CCCNC(=O)[C@@]12CCCC3([C@H](OCCO)OC1)[C@H]2CC[C@H]1[C@@H](C)c2ccoc2C[C@@H]13  viability at 24 h, 200 µM           27.5

Now consider a different compound.
Q: Value lookup for viability at 24 h, 200 µM; key = CCNC(=O)[C@@]12CCCC3([C@H](OCCO)OC1)[C@H]2CC[C@H]1[C@@H](C)c2ccoc2C[C@@H]13
Result: 47.5

* * *

- TEST METHOD NOTES: Inhibition of gluconeogenesis in C57BL/6J mouse primary hepatocytes assessed as inhibition of glucagon-stimulated glucose production at 10 uM preincubated for 1.5 hrs followed by lactate and pyruvate addition and later stimulated with glucagon for 4 hrs
- Type: functional
- SETTINGS: Hepatocyte, time 5.5 hrs
Please note: yes applies when inhibition at 10 µM is 40% or greater, and no applies otherwise.

> print(dat)
                               input.smiles  answer.label
1  COC(=O)[C@@]12CCCC3([C@H](OCCO)OC1)[C@H]2CC[C@H]1[C@@H](C)C2=CC(=O)O[C@]2(O)C[C@@H]13            no
2  CCNC(=O)[C@@]12CCCC3([C@H](OCCO)OC1)[C@H]2CC[C@H]1[C@@H](C)c2ccoc2C[C@@H]13           yes
3  COC(=O)[C@@]12CCCC3([C@H](OCCO)OC1)[C@H]2CC[C@H]1[C@@H](C)[C@@H]2CCO[C@@H]2C[C@@H]13            no

Q: Decide: is the reported value of inhibition at 10 µM for CCCNC(=O)[C@@]12CCCC3([C@H](OCCO)OC1)[C@H]2CC[C@H]1[C@@H](C)c2ccoc2C[C@@H]13 equal to or greater than 40%?
Result: yes

Q: Decide: is the reported value of inhibition at 10 µM for COC(=O)[C@@]12CCC[C@]3(C(=O)OC1)[C@H]1Cc4occc4[C@H](C)[C@@H]1CC[C@@H]23 equal to or greater than 40%?
Result: yes

Q: Decide: is the reported value of inhibition at 10 µM for C[C@H]1c2ccoc2C[C@H]2[C@H]1CC[C@@H]1C23CCC[C@]1(C(=O)O)CO[C@H]3OCCO equal to or greater than 40%?
Result: no

Q: Decide: is the reported value of inhibition at 10 µM for COC(=O)[C@@]12CCCC3([C@H](OC)OC1)[C@H]2CC[C@H]1[C@@H](C)c2ccoc2C[C@@H]13 equal to or greater than 40%?
Result: no

Q: Decide: is the reported value of inhibition at 10 µM for COC(=O)[C@@]12CCCC3([C@H](OCCOCCOCCO)OC1)[C@H]2CC[C@H]1[C@@H](C)c2ccoc2C[C@@H]13 equal to or greater than 40%?
Result: yes
